System Under Test: Human Full Length PARG (Homo sapiens (Human), UniProt Q86W56)
Sequence (Q86W56 whole entry): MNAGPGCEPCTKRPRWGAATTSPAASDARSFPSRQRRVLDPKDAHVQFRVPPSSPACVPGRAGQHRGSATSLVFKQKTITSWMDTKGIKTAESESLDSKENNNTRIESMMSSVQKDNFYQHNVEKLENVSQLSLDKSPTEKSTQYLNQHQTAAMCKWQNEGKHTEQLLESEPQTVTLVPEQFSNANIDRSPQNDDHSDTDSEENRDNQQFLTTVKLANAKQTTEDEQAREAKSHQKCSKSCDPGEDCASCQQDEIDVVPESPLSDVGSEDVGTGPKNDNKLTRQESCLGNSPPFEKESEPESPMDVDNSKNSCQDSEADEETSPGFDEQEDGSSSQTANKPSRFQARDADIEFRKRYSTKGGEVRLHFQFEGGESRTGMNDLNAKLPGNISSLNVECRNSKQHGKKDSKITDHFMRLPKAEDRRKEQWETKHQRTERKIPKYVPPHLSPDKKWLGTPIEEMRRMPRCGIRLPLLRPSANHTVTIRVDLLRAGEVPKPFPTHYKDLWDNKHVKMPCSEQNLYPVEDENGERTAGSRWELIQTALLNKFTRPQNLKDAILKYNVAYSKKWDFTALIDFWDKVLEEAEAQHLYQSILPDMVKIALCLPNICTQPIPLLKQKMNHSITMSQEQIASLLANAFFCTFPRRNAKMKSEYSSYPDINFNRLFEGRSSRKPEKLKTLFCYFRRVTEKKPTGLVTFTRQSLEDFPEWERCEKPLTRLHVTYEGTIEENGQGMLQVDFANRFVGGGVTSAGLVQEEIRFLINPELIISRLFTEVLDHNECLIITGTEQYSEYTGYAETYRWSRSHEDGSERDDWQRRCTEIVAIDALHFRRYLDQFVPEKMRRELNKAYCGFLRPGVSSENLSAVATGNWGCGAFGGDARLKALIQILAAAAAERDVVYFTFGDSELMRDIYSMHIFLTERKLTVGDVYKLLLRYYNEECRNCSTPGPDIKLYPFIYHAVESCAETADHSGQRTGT
Test Details: PARG enzyme assay (TR-FRET)
Type: biochemical
Condition Summary: read-out: PARG Biochem IC50
For each record, check the reported IC50: if it is below 500 nM write 1, else write -1.

API: query returns whether the compound falls strictly under 500 nM in IC50. Query: Cc1cc(Cn2c(=O)n(Cc3cnc(C)s3)c(=O)c3cc(S(=O)(=O)NC4(C#N)CC4)ccc32)on1 [Example 400] 1

Please indicate whether the reported IC50 of Cn1cc(Cn2c(=O)[nH]c3c(C(N)=O)cc(S(=O)(=O)NC4(C)CC4)cc3c2=O)cn1 [Example 424] is strictly below 500 nM. 1

Find out if reported IC50 for Cn1cc(Cn2c(=O)c3cc(S(=O)(=O)NC4(CF)CC4)ccc3n(CCc3ccccn3)c2=O)cn1 [Example 566] is less than 500 nM -1

Please check: IC50 for Cc1oncc1Cn1c(=O)n(Cc2cnn(C)c2)c(=O)c2cc(S(=O)(=O)NC3(CF)CC3)ccc21 [Example 579] , strictly under 500 nM or not? 1

Does this compound meet the criterion IC50 < 500 nM? Cc1cc(Cn2c(=O)c3cc(S(=O)(=O)NC4(CF)CC4)ccc3n(Cc3ncn(C)n3)c2=O)on1 [Example 553] 1

Is the reported IC50 for CC(C)c1nnsc1Cn1c(=O)c2cc(S(=O)(=O)NC3(C)CC3)ccc2n(C)c1=O [Example 509] strictly below 500 nM? -1

###

System Under Test: UniProt Q9NX46
Sequence (Q9NX46 whole entry): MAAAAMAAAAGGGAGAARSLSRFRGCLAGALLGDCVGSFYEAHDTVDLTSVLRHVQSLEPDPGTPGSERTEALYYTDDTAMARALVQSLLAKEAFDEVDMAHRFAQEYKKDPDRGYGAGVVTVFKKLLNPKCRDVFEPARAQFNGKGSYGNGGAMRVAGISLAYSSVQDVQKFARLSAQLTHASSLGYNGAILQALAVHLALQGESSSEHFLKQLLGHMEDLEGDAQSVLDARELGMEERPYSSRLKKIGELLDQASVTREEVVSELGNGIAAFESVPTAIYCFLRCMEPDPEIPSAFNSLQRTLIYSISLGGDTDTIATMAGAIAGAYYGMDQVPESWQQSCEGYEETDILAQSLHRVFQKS
Provide the reported IC50 of each item.

Note down IC50 recorded for `Cc1noc(C)c1Cn1c(=O)c2cc(S(=O)(=O)NC3(C)CC3)ccc2n(CC2CC2)c1=O` > 100 µM

# return recorded IC50 for input `Cc1cc(Cn2c(=O)c3cc(S(=O)(=O)NC4(CF)CC4)ccc3n(Cc3sc(C)nc3C)c2=O)on1` > 150 µM

Dear colleague, please send me the reported IC50 for `Cc1nc(C)c(Cn2c(=O)n(Cc3c(C)noc3C)c(=O)c3cc(S(=O)(=O)NC4(C)CC4)ccc32)s1` when you can. > 100 µM

Answer with reported IC50 of `CCn1c(=O)n(Cc2nnc(C)s2)c(=O)c2cc(S(=O)(=O)NC3(C)CC3)ccc21` > 150 µM

// Input: `Cc1cc(Cn2nc(Cc3ccccc3)c3ccc(S(=O)(=O)NC4(C)CC4)cc3c2=O)on1` . Output its IC50 only. > 150 µM

Consider the compound `Cc1nnc(Cn2c(=O)c3cc(S(=O)(=O)NC4(CF)CC4)ccc3n(CCF)c2=O)s1` . State its measured IC50. > 150 µM

Please supply the value of reported IC50 for the item `Cn1c(=O)c(=O)n(CC2CC2)c2ccc(S(=O)(=O)NC3(C)CC3)cc21` > 150 µM

Return value of IC50 for input `C#CCn1c(=O)n(Cc2cnc(C)s2)c(=O)c2cc(S(=O)(=O)NC3(C)CC3)ccc21` , no commentary. > 100 µM

Answer with the recorded IC50 for the compound listed here: `Cc1nc(C)c(Cn2c(=O)n(Cc3cnn(C)c3)c(=O)c3cc(S(=O)(=O)NC4(CF)CC4)ccc32)s1` > 150 µM

Please indicate IC50 recorded for `Cc1cc(Cn2cc(C(=O)C3CC3)c3ccc(S(=O)(=O)NC4(C)CC4)cc3c2=O)on1` > 150 µM

Find the measured IC50 of `Cc1oncc1Cn1c(=O)n(Cc2cnn(C)c2)c(=O)c2cc(S(=O)(=O)NC3(CF)CC3)ccc21` and report it. > 150 µM

Please look at this compound and report its IC50: `Cc1ncsc1Cn1c(=O)n(Cc2cnn(C)c2)c(=O)c2cc(S(=O)(=O)NC3(CF)CC3)ccc21` > 150 µM
